// reported HeLa-ACE2 SI CC50/CoV-2 EC50 for each item listed
# System: SARS-CoV-2

compound	measuredTarget	limitOperator	HeLa-ACE2 SI CC50/CoV-2 EC50
C[C@H]1O[C@@H](O[C@H]2[C@@H](O)C[C@@H](O[C@@H]3[C@@H](O)C[C@H](O[C@H]4CC[C@@]5(C)[C@H](CC[C@@H]6[C@@H]5C[C@@H](O)[C@]5(C)[C@@H](C7=CC(=O)OC7)CC[C@]65O)C4)O[C@@H]3C)O[C@@H]2C)C[C@H](O)[C@@H]1O (stereo in doubt)	SARS-CoV-2	=	0.72
COc1ccc2c(c1)c(CC(=O)NO)c(C)n2C(=O)c1ccc(Cl)cc1	SARS-CoV-2	=	0.64
Cn1cnc([N+](=O)[O-])c1Sc1ncnc2[nH]cnc12	SARS-CoV-2	=	7.67
COc1ccc2c(c1)[C@]1(CC1c1ccc3c(/C=C/c4ccc(CN5C[C@@H](C)O[C@@H](C)C5)cc4)n[nH]c3c1)C(=O)N2 (stereo partly shown)	SARS-CoV-2	<	1.02
